assay: pH Stability test of α-D-glucosyl kasugamycin; type: physicochemical; conditions: buffer; pH 4.0; 120° C. for 1 hour; mean, n = 5; read-out: Residue (%)
endpoint: remaining at 1 h (%)
Report the value in % with no unit label.

Measured remaining at 1 h of `C[C@H]1O[C@H](O[C@H]2[C@H](O)[C@@H](O)[C@@H](O)[C@H](O)[C@@H]2O)[C@@H](N)C[C@@H]1NC(=N)C(=O)O` : 72.1

###

Experiment: pH Stability test of α-D-glucosyl kasugamycin
Format: physicochemical
Settings: buffer; pH 6.0; 120° C. for 1 hour; mean, n = 5; read-out: Residue (%)
Method: Fifty μl of 2.56 w/v % aqueous solution of α-D-glucosyl kasugamycin (purity: about 80%), which was prepared according to the method described in Example 3 was mixed with 450 μl of a buffer adjusted to pH 2.0, 4.0, 6.0, 8.0 or 10.0. The mixture was kept at 120° C. for 1 hour in a well-closed container. […] Residue was calculated on the basis of a ratio of the peak area of α-D-glucosyl kasugamycin in each treated mixture to that in the sample as a comparison. […]
endpoint: remaining at 1 h (%)
Report the value in % with no unit label.

Measured remaining at 1 h of `C[C@H]1O[C@H](O[C@H]2[C@H](O)[C@@H](O)[C@@H](O)[C@H](O)[C@@H]2O)[C@@H](N)C[C@@H]1NC(=N)C(=O)O` : 26.8
